Test: Part A single-ascending-dose plasma PK in healthy subjects
Format: in vivo, human
Details: human, plasma, iv, 1 g, part A cohort 8 (elderly subjects >65 years), single 1.0 g, 3-h i.v. infusion, median
measured-endpoint: Tmax (h)
Quick note: give the figure in h, leave out the unit.

Input: # input molecule: CC1=C[C@@H]2CN(C(=O)N2OS(=O)(=O)O)[C@@H]1C(N)=O [DUR, Durlobactam] ; wanted: its Tmax
Output: 3

---

Experiment: Part A single-ascending-dose plasma PK in healthy subjects
Type: in vivo, human
Conditions: human, plasma, iv, 1 g, part A cohort 4, single 1.0 g, 2-h i.v. infusion, mean ± SD, n=6; read-out: t1/2 (converted)
measured-endpoint: half-life (h)
Quick note: give the figure in h, leave out the unit.

Input: # input compound: CC1=C[C@@H]2CN(C(=O)N2OS(=O)(=O)O)[C@@H]1C(N)=O ; wanted: its half-life
Output: 2.2
